- Experiment description: ovarian cancer cell viability with rucaparib, profiling panel, oncology-focused library, rucaparib conditional (AID 1508598)
- Condition summary: patient-derived ovarian cancer cells, CellTiter-Glo viability, 144 h; at 0.00122 µM; OCI-C5x cells; with rucaparib 10 µM; 100% = cells with rucaparib alone
The source made the active and inactive calls.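 The calls were made as follows: active = normalized viability below 100% at a tested concentration; inactive = the rest.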
Result category, one only: active, inactive

Look up the recorded call for CCN(CC)CCNC(=O)c1c(C)[nH]c(/C=C2\C(=O)Nc3ccc(F)cc32)c1C in this test.
inactive

Please give the result for Cc1cc(O)c2c(c1)C(=O)c1cccc(O)c1C2=O too.
inactive

Please give the result for Cc1nc(Nc2ncc(C(=O)Nc3c(C)cccc3Cl)s2)cc(N2CCN(CCO)CC2)n1 too.
active

Please give the result for CNC(=O)c1cc(Oc2ccc(NC(=O)Nc3ccc(Cl)c(C(F)(F)F)c3)cc2)ccn1 too.
inactive

Please give the result for CCc1ccc(CCOc2ccc(CC3SC(=O)NC3=O)cc2)nc1 (configuration not stated) too.
inactive

Please give the result for CC(C)n1c(/C=C/[C@@H](O)C[C@@H](O)CC(=O)O)c(-c2ccc(F)cc2)c2ccccc21 too.
inactive

Please give the result for CN(N=O)C(=O)N[C@@H]1[C@@H](O)[C@H](O)[C@@H](CO)O[C@@H]1O too.
inactive

Please give the result for COc1c(C)c2c(c(O)c1C/C=C(\C)CCC(=O)O)C(=O)OC2 too.
inactive

Please give the result for COc1c(C)c2c(c(O)c1C/C=C(\C)CCC(=O)OCCN1CCOCC1)C(=O)OC2 too.
inactive

Please give the result for CN1CC[C@H](c2c(O)cc(O)c3c(=O)cc(-c4ccccc4Cl)oc23)[C@H](O)C1 too.
active

Please give the result for COc1cc(Nc2c(C#N)cnc3cc(OCCCN4CCN(C)CC4)c(OC)cc23)c(Cl)cc1Cl too.
inactive

Please give the result for CNC(=O)c1ccccc1Sc1ccc2c(/C=C/c3ccccn3)n[nH]c2c1 too.
inactive

Please give the result for Nc1cccc2c1CN(C1CCC(=O)NC1=O)C2=O (configuration not stated) too.
inactive

Please give the result for Nc1ncn([C@H]2C[C@H](O)[C@@H](CO)O2)c(=O)n1 too.
inactive

Please give the result for Cc1ccc(Nc2nccc(N(C)c3ccc4c(C)n(C)nc4c3)n2)cc1S(N)(=O)=O too.
inactive

Please give the result for CC/C(=C(\c1ccccc1)c1ccc(OCCN(C)C)cc1)c1ccccc1 too.
inactive

Please give the result for O=C(NOCC1CC1)c1ccc(F)c(F)c1Nc1ccc(I)cc1Cl too.
inactive
